- target.or.system: UniProt:P01116
- Sequence (P01116 with tags, fused parts or gaps isoform P01116-2): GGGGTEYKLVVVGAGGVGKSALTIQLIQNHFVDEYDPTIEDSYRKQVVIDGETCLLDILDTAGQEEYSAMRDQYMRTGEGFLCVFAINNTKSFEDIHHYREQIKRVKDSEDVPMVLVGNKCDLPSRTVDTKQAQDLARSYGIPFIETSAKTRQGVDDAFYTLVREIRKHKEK
- assay.notes: SOS-catalyzed nucleotide exchange assay (Procedure A, TR-FRET), KRAS-WT
- Assay type: biochemical
- experimental.conditions: nucleotide exchange, read-out: KRAS WT GNE IC50
property: IC50

# compound, target.or.system, recorded.value
rows = [
    ("Cn1c2nc(OC[C@@]34CCCN3C[C@H](F)C4)nc(N3CCOC[C@@](C)(O)C3)c2c2ccnc(-c3c(C4(F)CC4)c(Cl)cc4[nH]ncc34)c21 (single isomer, unassigned)", "UniProt:P01116", "17.2 nM"),
    ("C[C@@]1(O)COCCN(c2nc(OC[C@@]34CCCN3C[C@H](F)C4)nc3c(Cl)c4c(-c5c(C6CC6)c(Cl)cc6[nH]ncc56)nccn4c23)C1 (single isomer, unassigned)", "UniProt:P01116", "14.4 nM"),
    ("Cc1cc2[nH]ncc2c(-c2cncc3c2sc2nc(OC[C@@]45CCCN4C[C@H](F)C5)nc(N4CCOC[C@@](C)(O)C4)c23)c1C(F)(F)F", "UniProt:P01116", "1230 nM"),
    ("Cc1cc2[nH]ncc2c(-c2nccc3c2sc2nc(OC[C@@]45CCCN4C[C@H](F)C5)nc(NC4CCOC4)c23)c1C(F)(F)F (stereo partly drawn)", "UniProt:P01116", "1860 nM"),
    ("Cc1cc2[nH]ncc2c(-c2nccc3c2sc2nc(OC[C@@]45CCCN4C[C@H](F)C5)nc(N4CCC[C@@]5(CNC(=O)O5)C4)c23)c1C(F)(F)F", "UniProt:P01116", "35.8 nM"),
    ("C[C@@]1(O)COCCN(c2nc(OC[C@@]34CCCN3C[C@H](F)C4)nc3sc4c(-c5c(C6CC6)c(Cl)cc6[nH]ncc56)nncc4c23)C1", "UniProt:P01116", "9.47 nM"),
    ("CO[C@H]1C[C@@H](COc2nc(N3CCOC[C@@](C)(O)C3)c3c(n2)sc2c(-c4c(C5CC5)c(C(F)(F)F)cc5[nH]ncc45)nccc23)N(C)C1", "UniProt:P01116", "1380 nM"),
    ("C[C@@]1(O)COCCN(c2nc(OC[C@@]34CCCN3C/C(=C\\F)C4)nc3sc4c(-c5c(C6CC6)c(Cl)cc6[nH]ncc56)nccc4c23)C1", "UniProt:P01116", "5.79 nM"),
    ("C[C@@]1(O)COCCN(c2nc(OC[C@@]34CCCN3C[C@H](F)C4)nc3sc4c(-c5c(C6(F)CC6)c(C(F)(F)F)cc6[nH]ncc56)nccc4c23)C1", "UniProt:P01116", "26.4 nM"),
    ("CN(C)C1CC(F)(F)C2C[C@]12COc1nc(N2CCOC[C@@](C)(O)C2)c2c(n1)sc1c(-c3c(C4(F)CC4)c(Cl)cc4[nH]ncc34)nccc12 (stereo partly drawn) [Ex-270]", "UniProt:P01116", "27.9 nM"),
    ("Cc1cc2[nH]ncc2c(-c2nccc3c2sc2nc(OC[C@@]45CCCN4C[C@H](F)C5)nc(N4CCOC[C@@](C)(O)C4)c23)c1-c1ccsc1", "UniProt:P01116", "319 nM"),
    ("CN1CC[C@H]2C(Oc3nc(N4CCOC[C@@](C)(O)C4)c4c(n3)sc3c(-c5c(C6CC6)c(Cl)cc6[nH]ncc56)nccc34)C[C@H]21 (stereo partly drawn)", "UniProt:P01116", "1590 nM"),
]
